Test: Cmax in CD1 mouse at 3 mg/kg, po after 0.25 to 24 hrs
Format: ADME, organism-based
Parameters: dose 3 mg/kg, route oral
Details: in vivo
resultType: Cmax (ng/mL)
All answers are understood in ng/mL, so give the number only.

Would you please look over these solved cases?
cpdSmiles: COC(=O)N[C@H](C(=O)N1CCC[C@H]1c1nc2cc([C@H]3CC[C@H](c4cc5nc([C@@H]6CCCN6C(=O)[C@@H](NC(=O)OC)C(C)C)[nH]c5cc4F)N3c3cc(F)c(N4CCCCC4)c(F)c3)c(F)cc2[nH]1)C(C)C
outputUnit: ng/mL
quantitativeReadout: 370
//
cpdSmiles: COC(=O)N[C@H](C(=O)N1CCC[C@H]1c1nc2cc([C@H]3CC[C@H](c4ccc5[nH]c([C@@H]6CCCN6C(=O)[C@@H](NC(=O)OC)C(C)C)nc5c4)N3c3cc(F)c(N4CCCCC4)c(F)c3)ccc2[nH]1)C(C)C
outputUnit: ng/mL
quantitativeReadout: 220

Looking for the measured Cmax of `COC(=O)N[C@H](C(=O)N1CCC[C@H]1C(=O)Nc1ccc([C@H]2CC[C@@H](c3ccc(NC(=O)[C@@H]4CCCN4C(=O)[C@@H](NC(=O)OC)C(C)C)cc3)N2c2ccc(C(C)(C)C)cc2)cc1)C(C)C` , can you help? 570

Looking for the measured Cmax of `COC(=O)N[C@H](C(=O)N1CCC[C@H]1c1nc2cc([C@H]3CC[C@H](c4cc5[nH]c([C@@H]6CCCN6C(=O)[C@@H](NC(=O)OC)C(C)C)nc5cc4F)N3c3ccc(C(C)(C)C)cc3)c(F)cc2[nH]1)C(C)C` , can you help? 630

Origin of the recorded values: ChEMBL document CHEMBL3864160
